B1: tRNA (parent)
chain: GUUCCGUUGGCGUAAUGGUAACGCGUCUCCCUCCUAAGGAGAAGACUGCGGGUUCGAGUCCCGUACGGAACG

Variants of: B1
experiment description: yeast fitness, log relative to wild type (ln ratio); higher = fitter; tRNA-Arg(CCU), competitive growth, 37 C, 1 M NaCl
Give label 1 when the value for yeast fitness (ln) is at least -0.1. Give label 0 when it is less.

State whether the measured yeast fitness (ln) reaches -0.1, counting equality as reaching it, for AUUCCUUUGGCGUAAUGGUAACGCGUUUCCCUCCUAAGGAGACGAUUGCGGGUUCGAGUCCCGUAUGGAAUG [G1A G6U C27U A43C C46U C66U C71U]
label 0

Param item: AGUCCGUUGGCGUAAUGGUAACGCGUCUCCCUCCUAAGGAGAAGAUUGCGGGUUCGAGUCCCGUAAGGAAUG [G1A U2G C46U C66A C71U]
label 1

Now the same for ACUCCAUUGGCGUAAUGGUAACGCGUUUCCCUCCUAAGGAGACGAUUGCGGGUUCGAGUCCCGUACGGGGCG [G1A U2C G6A C27U A43C C46U A69G A70G]
label 0

Cool, now AGUCCUUUGGCGUAAUGGUAACGCGUCUCCCUCCUAAGGAGACGACUGCGGGUUCGAGUCCCGUAAGGAUUG [G1A U2G G6U A43C C66A A70U C71U]
label 0

Same question for GUUCCGUUGGCGUAAUGGUAACGCGUUUCCCUCCUAAGGAGAAGACUGCGGGUUCGAGUCCCGUAUGGAUCG [C27U C66U A70U] please.
label 1

Moving on to the next variant: GUUCCAUUGGCGUAAUGGUAACGCGUUUCCCUCCUAAGGAGACGAUUGCGGGUUCGAGUCCCGUACGGGUUG [G6A C27U A43C C46U A69G A70U C71U]
label 0

Now try ACUCCAUUGGCGUAAUGGUAACGCGUUUCCCUCCUAAGGAGACGAUUGCGGGUUCGAGUCCCGUAUGGAAUG [G1A U2C G6A C27U A43C C46U C66U C71U] .
label 0

Proceed to GUUCCUUUGGCGUAAUGGUAACGCGUUUCCCUCCUAAGGAGAAGACUGCGGGUUCGAGUCCCGUACGGGUUG [G6U C27U A69G A70U C71U]
label 0

Next variant up: GCUCCAUUGGCGUAAUGGUAACGCGUUUCCCUCCUAAGGAGACGAUUGCGGGUUCGAGUCCCGUAAGGAUCG [U2C G6A C27U A43C C46U C66A A70U]
label 1

Next record, please: AUUCCGUUGGCGUAAUGGUAACGCGUCUCCCUCCUAAGGAGAAGACUGCGGGUUCGAGUCCCGUAAGGAAUG [G1A C66A C71U]
label 0

Also check AGUCCAUUGGCGUAAUGGUAACGCGUUUCCCUCCUAAGGAGACGACUGCGGGUUCGAGUCCCGUAAGGAUCG [G1A U2G G6A C27U A43C C66A A70U]
label 0

Subsequent entry: ACUCCGUUGGCGUAAUGGUAACGCGUUUCCCUCCUAAGGAGAAGAUUGCGGGUUCGAGUCCCGUAUGGAUCG [G1A U2C C27U C46U C66U A70U]
label 1

Likewise for GCUCCAUUGGCGUAAUGGUAACGCGUCUCCCUCCUAAGGAGACGACUGCGGGUUCGAGUCCCGUAUGGGGCG [U2C G6A A43C C66U A69G A70G] ?
label 1

Now consider GGUCCAUUGGCGUAAUGGUAACGCGUUUCCCUCCUAAGGAGACGACUGCGGGUUCGAGUCCCGUAUGGAAUG [U2G G6A C27U A43C C66U C71U] and answer again.
label 0

Another variant to check: GUUCCUUUGGCGUAAUGGUAACGCGUCUCCCUCCUAAGGAGACGACUGCGGGUUCGAGUCCCGUAAGGAGCG [G6U A43C C66A A70G]
label 1

Field entry: AUUCCGUUGGCGUAAUGGUAACGCGUUUCCCUCCUAAGGAGACGAUUGCGGGUUCGAGUCCCGUACGGAGUG [G1A C27U A43C C46U A70G C71U]
label 0

Also, GUUCCUUUGGCGUAAUGGUAACGCGUCUCCCUCCUAAGGAGACGAUUGCGGGUUCGAGUCCCGUACGGGAUG [G6U A43C C46U A69G C71U] please.
label 0

Further, for GGUCCAUUGGCGUAAUGGUAACGCGUUUCCCUCCUAAGGAGACGAUUGCGGGUUCGAGUCCCGUACGGAAUG [U2G G6A C27U A43C C46U C71U] ?
label 0

Next: GCUCCUUUGGCGUAAUGGUAACGCGUUUCCCUCCUAAGGAGACGACUGCGGGUUCGAGUCCCGUAUGGAGUG [U2C G6U C27U A43C C66U A70G C71U]
label 0

Then this variant: ACUCCGUUGGCGUAAUGGUAACGCGUCUCCCUCCUAAGGAGAAGAUUGCGGGUUCGAGUCCCGUACGGAGCG [G1A U2C C46U A70G]
label 1

Now consider GGUCCUUUGGCGUAAUGGUAACGCGUCUCCCUCCUAAGGAGAAGACUGCGGGUUCGAGUCCCGUAAGGAGCG [U2G G6U C66A A70G] .
label 1

And then GCUCCAUUGGCGUAAUGGUAACGCGUCUCCCUCCUAAGGAGAAGACUGCGGGUUCGAGUCCCGUAAGGAUUG [U2C G6A C66A A70U C71U] , what is it?
label 1

Origin of measurements: the RNAGym collection of RNA variant scans (doi:10.1038/s41586-018-0170-7)
